Each entry below carries its recorded melting point.

Observe how each entry below is paired with its result.
- CCOC(=O)COc1ccc(CN2C(=O)C3(COc4cc5c(cc43)CCO5)c3ccccc32)cc1 (centres unmarked): 158 to 159 °C
- NC(=O)COc1cccc(CN2C(=O)C3(COc4cc5c(cc43)CCO5)c3ccccc32)c1 (centres unmarked): 109 to 111 °C
- CCOC(=O)COc1cccc(CN2C(=O)C3(COc4cc5c(cc43)CCO5)c3ccccc32)c1 (centres unmarked): 45 to 46 °C
- CC(=O)N1CCC[C@H]1CN1C(=O)C2(COc3cc4c(cc32)CCO4)c2ccccc21 (some centres unmarked): 103 to 108 °C

I am curious: what melting point value has been reported for O=C1N(Cc2ccc(OCCO)cc2)c2ccccc2C12COc1cc3c(cc12)OCCO3 (centres unmarked) ?
196 to 197 °C
